- Target Of Assay: norepinephrine transporter (Homo sapiens, UniProt P23975)
- Sequence (P23975 whole entry): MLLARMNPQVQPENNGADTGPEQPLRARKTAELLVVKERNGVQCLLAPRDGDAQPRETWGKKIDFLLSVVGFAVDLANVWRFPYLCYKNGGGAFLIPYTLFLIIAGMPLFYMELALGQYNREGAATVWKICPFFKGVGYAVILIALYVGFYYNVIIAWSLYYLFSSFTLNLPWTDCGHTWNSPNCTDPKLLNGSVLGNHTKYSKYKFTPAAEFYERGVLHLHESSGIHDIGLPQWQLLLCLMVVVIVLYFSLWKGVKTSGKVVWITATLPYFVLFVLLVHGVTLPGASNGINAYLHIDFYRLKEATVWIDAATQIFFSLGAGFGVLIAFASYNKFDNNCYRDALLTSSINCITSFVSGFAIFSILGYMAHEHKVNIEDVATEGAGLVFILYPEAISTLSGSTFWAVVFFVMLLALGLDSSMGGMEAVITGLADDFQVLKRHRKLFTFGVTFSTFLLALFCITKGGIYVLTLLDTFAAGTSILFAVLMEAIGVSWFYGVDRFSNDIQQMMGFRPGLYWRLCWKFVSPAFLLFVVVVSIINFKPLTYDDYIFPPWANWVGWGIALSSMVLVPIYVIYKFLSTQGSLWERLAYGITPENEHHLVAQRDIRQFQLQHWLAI
- Test Details: Functional activity, norephinephrine uptake inhibition in MDCK cell lines
- Type: cell-based
Provide the reported EC50 of each item.

O[C@H](CN1CCC[C@@H](COc2ccc(C(F)(F)F)cc2)C1)C1(c2ccc(Cl)cc2)CCC1 : < 1 µM
OC[C@H]1[C@@H](COc2ccc(C(F)(F)F)cc2)CCCN1CC1(c2ccc(Cl)cc2)CCC1 (racemic) : < 1 µM
CC(Oc1ccc(C(F)(F)F)cc1)C1CCCN(CC2(c3ccc(Cl)cc3)CCC2)C1 (stereo not shown) : < 1 µM
Fc1ccc(OCC2CCCN(CC3(c4ccc(Cl)cc4)CCC3)C2)cc1 (stereo not shown) : < 1 µM
Clc1ccc(C2(CN3CCC[C@H](COc4ccc5c(c4)OCO5)C3)CCC2)cc1 : < 1 µM
O=C(CN1CCC[C@@H](COc2ccc(C(F)(F)F)cc2)C1)C1(c2ccc(Cl)cc2)CCC1 : < 1 µM
O[C@@H](CN1CCC[C@@H](COc2ccc(C(F)(F)F)cc2)C1)C1(c2ccc(Cl)cc2)CCC1 : < 1 µM
O=C(CN1CCC[C@H](COc2ccc(C(F)(F)F)cc2)C1)C1(c2ccc(Cl)cc2)CCC1 : < 1 µM
FC(F)(F)c1ccc(OC[C@@H]2CCCN(CC3(c4ccc(Cl)cc4)CCC3)C2)cc1 : < 1 µM
Clc1ccc(C2(CN3CCC[C@@H](COc4ccc5c(c4)OCO5)C3)CCC2)cc1 : < 1 µM

Hey, quick one: what's EC50 for each of these?
1. FC(F)(F)c1ccc(OC[C@H]2CCCN(CC3(c4ccc(Cl)cc4)CCC3)C2)cc1
2. O[C@@H](CN1CCC[C@H](COc2ccc(C(F)(F)F)cc2)C1)C1(c2ccc(Cl)cc2)CCC1
3. FC(F)(F)c1ccc(OCC2CN(CC3(c4ccc(Cl)cc4)CCC3)CCO2)cc1 (stereo not shown)

Response:
1. < 1 µM
2. < 1 µM
3. < 0.01 µM

---

- Target Of Assay: serotonin transporter (Homo sapiens, UniProt P31645)
- Sequence (P31645 whole entry): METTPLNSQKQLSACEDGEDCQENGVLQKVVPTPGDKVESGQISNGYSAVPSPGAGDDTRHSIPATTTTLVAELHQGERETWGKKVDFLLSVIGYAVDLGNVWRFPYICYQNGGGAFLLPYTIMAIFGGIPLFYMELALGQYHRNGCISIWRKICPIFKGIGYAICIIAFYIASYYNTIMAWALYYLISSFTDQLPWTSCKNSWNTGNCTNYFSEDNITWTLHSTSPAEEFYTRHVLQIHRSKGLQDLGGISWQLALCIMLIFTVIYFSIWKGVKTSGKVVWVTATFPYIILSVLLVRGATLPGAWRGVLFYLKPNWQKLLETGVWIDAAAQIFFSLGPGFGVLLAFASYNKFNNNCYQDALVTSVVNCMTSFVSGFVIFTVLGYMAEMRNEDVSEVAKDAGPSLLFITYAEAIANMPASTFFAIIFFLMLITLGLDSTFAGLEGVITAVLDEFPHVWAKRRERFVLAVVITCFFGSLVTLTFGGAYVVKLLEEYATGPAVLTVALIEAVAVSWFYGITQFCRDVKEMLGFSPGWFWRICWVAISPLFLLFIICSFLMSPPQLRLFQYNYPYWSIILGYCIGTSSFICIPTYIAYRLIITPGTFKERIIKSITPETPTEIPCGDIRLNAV
- Test Details: 5-HT uptake: displacement of serotonin ligands in vitro (methods of Gu et al.)
- Type: binding
- Test Conditions: displacement of serotonin ligands in vitro; read-out: 5-HT Uptake, Uptake Profile (IC50)
Provide the reported IC50 of each item.

Example compounds with recorded IC50:
COc1ccc(OCC2CCCN(CC3(c4ccccc4)CCC3)C2)cc1 (stereo not drawn) [compound 55] : > 1 µM
FC(F)(F)c1ccc(OCC2CCCN(CC3COc4ccccc4O3)C2)cc1 (single isomer, unassigned) [compound 179] : < 1 µM
CC(C)(CN1CCC[C@@H](COc2ccc(C(F)(F)F)cc2)C1)c1ccc(Cl)cc1 [compound 122] : > 1 µM
FC(F)(F)c1ccc(OCC2CCCN(CC3COc4ccccc4O3)C2)cc1 (single isomer, unassigned) [compound 176] : < 1 µM
FC(F)(F)c1ccc(OCC2CN(CC3(c4ccc(Cl)cc4)CCC3)C2)cc1 [compound 105] : < 1 µM

Hey, quick one: what's IC50 for each of these?
1. OC(CN1CCCC(CCc2ccccc2)C1)c1ccc(Cl)cc1 (single isomer, unassigned) [compound 141]
2. c1ccc(OCC2CCCN(CC3(c4ccccc4)CCC3)C2)cc1 (stereo not drawn) [compound 34]
3. OC(CN1CCCC(CCc2ccc(C(F)(F)F)cc2)C1)C1(c2ccc(Cl)cc2)CCC1 (single isomer, unassigned) [compound 193]
4. Clc1ccc(C2(CN3CCC[C@@H](CNc4ccccc4)C3)CCC2)cc1 [compound 28]

Response:
< 1 µM
< 1 µM
< 1 µM
< 1 µM

Each recorded value in this set is attributed to patent US7294637B2.
